Hello, the source for this data is patent US20240317840A1, in case you need it.

Target: HBsAg clinical mutation M133L (Hepatitis B virus)
Assay: sandwich ELISA, captured mutant HBsAg from culture supernatant;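 further: Anti-HBsAg antibodies tested for binding to mutant HBsAg secreted by stably transfected cell lines, supernatant incubated 1 h on antibody-coated plates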
pIC50: −log10 of the molar value.
Think of 10 as a floor: if pIC50 stands on it or above, it is 1.0; beneath it, 0.0.

NOV3837 (antibody, human IgG1, kappa, V domains shown, Full human IgG1 (kappa) expressed in CHO cells) VH: QVQLQESGGRLVRPGGSLRLSCAASGFIFTDYYMTWIRQAPGKGPEWIAFITSGGETTYYADSVKGRFTISRDNAKKSLFLQMYSLRADDTAVYYCVRAHFDGYQYDTRGDFTYYFDNWGLGTLVSVSS VL: EIVMTQSPATLSVSPGERVTLSCRASQSVSSSLAWYQQKPGRAPRLLIYGASTRATGVPARFSGGGSGTDFTLTISSLQSEDFAVYYCHQYINWPPGDTFGQGTRLDIKR = 1.0
NOV3357 (antibody, human IgG1, kappa, V domains shown, Full human IgG1 (kappa) expressed in CHO cells) VH: EVQLLESGGGLVQPGGSLRLSCAASGFTFSPHAMSWVRQAPGKGLEWVSAISDSGGSTHYADSVKGRFTISRDNSKNTLYLQMNSLRAEDTAVYYCARDDDGWSGYDYWFDYWGQGTLVTVSS VL: DIQMTQSPSSLSASVGDRVTITCRASQSISPYLNWYQQKPGKAPKLLIYAADSLQSGVPSRFSGSGSGTDFTLTISSLQPEDFATYYCQQSYKIPLTFGQGTKVEIKR = 0.0
NOV3841 (antibody, human IgG1, lambda, V domains shown, Full human IgG1 (lambda) expressed in CHO cells) VH: EVQLLESGGGLVQPGGSRRLSCAASGFTFSYYGMNWVRQAPGKGLEWVSGITQSGSITYYADTVKGRFSISRDNSKNTLFLQMNSLRAEDTAVYYCAKVGVRSSSGMWDLDYWGQGTLVTVSS VL: SYVLTQPPSVSVAPGQTARLSCGGNNIGSKSLQWYQQKPGQAPVLVVNDESDRPSGIPERFSGSNSGNTATLTISRVEAGDEADYYCQVWDTSSDHVVFGGGTKLTVLG = 1.0
NOV3840 (antibody, human IgG1, lambda, V domains shown, Full human IgG1 (lambda) expressed in CHO cells) VH: EVQLLESGGGLVQPGGSRRLSCAASGFTFSYYGMNWVRQAPGKGLEWVSGITNSGSITYYADSVKGRFSISRDNSKNTLFLQMNSLRAEDTAVYYCAKVGVRSSSGMWDLDYWGQGTLVTVSS VL: SYVLTQPPSVSVAPGQTARLSCGGNNIGSKSLQWYQQKPGQAPVLVVNDDSDRPSGIPERFSGSNSGNTATLTISRVEAGDEADYYCQVWDTSSDHVVFGGGTKLTVLG = 1.0
NOV3833 (antibody, human IgG1, lambda, V domains shown, Full human IgG1 (lambda) expressed in CHO cells) VH: EMQVLESGGGLVQPGGSLRLSCAASGFTFHNYAMSWVRQVPGKGLEWVSSISGSGGSTYYADSVKGQFTISRDNSKNTLYLQMNSLRAEDTAVYYCAKSSILSGGHARVYGIDVWGQGTTVTVSS VL: QSALTQPPSVSVAPGQTARITCGGNNIGSQSVHWYQQKPGQAPILVVYDDTDRPSGIPARFSGSSSGSTATLTIGRVEAGDEADYYCQVWDSSSDHVVFGGGTKLTVLS = 1.0

Exercise: Check if pIC50 >= 10 (inclusive). Item: NOV3832 (antibody, human IgG1, lambda, V domains shown, Full human IgG1 (lambda) expressed in CHO cells) VH: EMQVLESGGGLVQPGGSLRLSCAASGFTFDNYAMSWVRQVPGKGLEWVSSISGSGGSTYYADSVKGQFTISRDNSKNTLYLQMNSLRAEDTAVYYCAKSSILSGGHARVYGIDVWGQGTTVTVSS VL: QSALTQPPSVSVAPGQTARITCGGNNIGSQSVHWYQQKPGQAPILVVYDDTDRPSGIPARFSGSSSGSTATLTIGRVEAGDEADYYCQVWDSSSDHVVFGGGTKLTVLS
Solution: 1.0

Exercise: Quick one: NOV3834 (antibody, human IgG1, kappa, V domains shown, Full human IgG1 (kappa) expressed in CHO cells) VH: QVQLVESGGGVVQPGRSLRLSCAASGFTFNRYGMHWVRQAPGKGLEWVAGIWHDGSHKYYADSLRGRFTISRDNAKNTLDLQLNRLRAEDTSVYYCVRQTNRGRLDDAFDIWGQGTMVTVSS VL: DIQMTQSPSSLSAAVGDRVTISCRASQTISSYLNWYQQKPGEAPKLLIYAASTLQSGVPSRFGGSGSGTDFTLTISSLQPEDSATYYCQQNYDTLWTFGQGTKVEIKR
Solution: 0.0

Exercise: Check NOV3831 (antibody, human IgG1, lambda, V domains shown, Full human IgG1 (lambda) expressed in CHO cells) VH: EMQVLESGGGLVQPGGSLRLSCAASGFTFNNYAMSWVRQVPGKGLEWVSSISGSGGSTYYADSVKGQFTISRDNSKNTLYLQMNSLRAEDTAVYYCAKSSILSGGHARVYGIDVWGQGTTVTVSS VL: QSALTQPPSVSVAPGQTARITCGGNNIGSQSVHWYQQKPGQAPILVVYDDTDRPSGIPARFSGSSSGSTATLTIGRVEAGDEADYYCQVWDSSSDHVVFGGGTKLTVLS too.
Solution: 1.0
